test system: SN12C renal; experiment: NCI-60 one-dose screen, 48 h (100 = growth as untreated, 0 = no growth, -100 = all killed); details: 10 µM unless noted
This is part of a sample that, as a whole, favours compounds with a hit. Of some 83,000 tested, about 20% had one in any assay.
Please note: growth exactly at 90% is no. Only values below 90% get yes.

| Compound | Tested System | Assigned Class |
| --- | --- | --- |
| COc1cc(C2CC(c3cccc(Nc4ccnc5cc(Cl)ccc45)c3)=NN2C=O)cc(OC)c1OC (configuration not stated) | SN12C renal | yes |
| COc1cc(C2CC(c3ccc(Cl)cc3)=NN2C(C)=O)ccc1Oc1ccnc2cc(Cl)ccc12 (configuration not stated) | SN12C renal | yes |
| Cc1nn(-c2cccc(Cl)c2)c(C)c1N=Nc1ccc(Br)cc1 | SN12C renal | no |
| CCCCCCCCN=C(NCCCCCCCC)SCc1cccc2ccccc12 | SN12C renal | yes |
| O=C(/C=C/c1ccc(F)cc1)N1CCN(C(=O)/C=C/c2ccc(C(F)(F)F)cc2)CC1 | SN12C renal | no |
| O=c1oc2ccccc2cc1-c1cc(-c2ccc(-c3cc(-c4cc5ccccc5oc4=O)nc(-c4cc5ccccc5oc4=O)c3)cc2)cc(-c2cc3ccccc3oc2=O)n1 | SN12C renal | no |
| COc1cc(C2CC(c3ccccc3)=NN2C=O)ccc1Oc1ccnc2cc(Cl)ccc12 (configuration not stated) | SN12C renal | yes |
| O=C(CC(=O)C(F)(F)C(F)(F)C(F)(F)F)c1cc2ccccc2o1 | SN12C renal | no |
| CCN(CC)CCCC(C)Nc1c(-c2ccccc2)cnc2cc(Cl)ccc12 (configuration not stated) | SN12C renal | yes |
| NC(N)=NC1CCCCC1 | SN12C renal | no |
| CC(C)(C)c1ccc(OC(=O)Nc2ccccc2)cc1 | SN12C renal | no |
| CCN(CC)CCNC(=O)C(F)(F)C(F)(F)C(F)(F)F | SN12C renal | no |
| COc1ccc(-c2cc(-c3ccc(OC)cc3)c3sc(=O)[nH]c3n2)cc1 | SN12C renal | yes |
| COc1cc2ncnc(Nc3ccc(S(=O)(=O)Nc4nccs4)cc3)c2cc1OCCCN1CCOCC1 | SN12C renal | no |
| Cn1cnc([N+](=O)[O-])c1S(=O)(=O)Oc1ccccc1 | SN12C renal | no |
| Nc1cc(C(=O)O)cc(C(=O)O)c1 | SN12C renal | no |
| CN(C)CC(=O)c1ccc2cc(Br)c3ccccc3c2c1 | SN12C renal | yes |
| COC(=O)CSc1ccc(Cl)cc1 | SN12C renal | no |
| NC(=S)N1N=C(c2ccc(Cl)cc2)CC1c1cc2ccccc2[nH]c1=O (configuration not stated) | SN12C renal | no |
| CC(=O)C1CCC2C3CC(C)=C4CC(O)CCC4(C)C3CCC12C (configuration not stated) | SN12C renal | no |
| CNC1=C([N+](=O)[O-])C(c2ccccc2O)C(C#N)=C(c2cccs2)O1 (configuration not stated) | SN12C renal | no |

* * *

tested on: HCC-2998 colon; assay: NCI-60 one-dose screen, 48 h (100 = growth as untreated, 0 = no growth, -100 = all killed); conditions: 10 µM unless noted
About 83,000 compounds went through this panel and 20% of them were active in at least one assay; those are over-represented in the sample as a whole. Active and inactive are the calls of the source. Rule for the calls: active = growth percent below 10; inactive = the rest.
The compounds listed here are annotated with their growth.
Quantity: growth

| Compound | Reported Value |
| --- | --- |
| COC(=O)[C@@H](Cc1c[nH]c2ccccc12)NC(=O)/C=C/c1ccccc1 | 66% (inactive) |
| COc1ccc(/C=C(\C#N)c2cc(OC)c(OC)c(OC)c2)cc1 | 21.7% (inactive) |
| O/N=C1\c2ccccc2-c2ccc(Br)cc21 | 102% (inactive) |
| COc1ccc2nc(-c3ccc(-c4noc(-c5ccc(Cl)cc5)n4)cc3)[nH]c2c1 | 93.6% (inactive) |
| COc1cc(C2CC(c3ccccc3)=NN2C=O)ccc1Oc1nc2c(c(=O)n(C)c(=O)n2C)n1C (configuration not stated) | 77.6% (inactive) |
| CN(C)CCNC(=O)n1cc(-c2ccncc2)c(-c2cc(O)cc(Cl)c2)n1 | 119% (inactive) |
| CCN(CC)c1ccc(/C=N/NC(=O)c2ccc(S(C)(=O)=O)cc2)c(O)c1 | 39.6% (inactive) |
| Clc1cc(Cl)cc(-c2cnc3nonc3n2)c1 | 97.5% (inactive) |
| O=C1NN(C(=O)c2ccccc2)C(c2ccc(Cl)c(Cl)c2)=C/C1=C\c1ccccc1[N+](=O)[O-] | -20.5% [6.75 µM] (active) |
| O=[N+]([O-])c1ccc(N/N=C\c2ccc(O)cc2O)nc1 | 10.6% (inactive) |
| O=S1(=O)NCCCN1CCNc1nccc(-c2c(-c3cccc(O)c3)nc3sccn23)n1 | 108% (inactive) |
| O=C(CCCN1CCC(O)(c2ccc(Br)cc2)CC1)c1ccc(F)cc1 | 71% (inactive) |
| COc1cccc(N2CCN(c3ncnc4cc[nH]c34)CC2)c1 | 62.7% (inactive) |
| O=C1/C(=C/c2cc(F)cc(F)c2)Cc2cc(F)cc(F)c21 | 105% (inactive) |
| Clc1ccccc1CNc1c2ccccc2nc2ccccc12 | -17.2% (active) |
| COc1cc(NCCC2CCCCN2)c2ncccc2c1OC (configuration not stated) | 80.6% (inactive) |
| Clc1ccc(-c2cnc3c(-c4ccnc(N5CCNCC5)c4)cnn3c2)cc1 | -43% (active) |
| CCCCCCCCCCCC1=NC(C)(C)CN1CC(C)O (configuration not stated) | -60.8% (active) |
| CSc1ccc(/C=C2\C=C(CC(=O)NCc3ccc(C(=O)c4ccccc4)cc3)c3cc(F)ccc32)cc1 | -0.5% (active) |
| S=C(Cc1ccccc1)N1CCN(c2ccccc2Cl)CC1 | 101% (inactive) |
| COc1ccc(-c2cc(-c3cn(-c4cccc(Cl)c4)nc3-c3ccc(OC)cc3)[nH]c(=S)n2)cc1 | 55.2% (inactive) |
| CCCC(CCC)(C(N)=O)C(=O)O | 100% (inactive) |

* * *

System: SK-MEL-28 melanoma
Experiment: NCI-60 one-dose screen, 48 h (100 = growth as untreated, 0 = no growth, -100 = all killed)
Details: 10 µM unless noted
Description: Growth inhibition of the SK-MEL-28 human tumor cell line is measured as a screen for anti-cancer activity. Cells are grown in 96 well plates and exposed to the test compound for 48 hours. Compounds are tested at a single concentration, which is 10^-5 M for most compounds. The reported endpoint is percent growth (GI% or GIPRCNT), where numbers from 0 - 100% represent growth inhibition, and numbers from -100% - 0 represent cell death. For example, a value of 40 represents 60% growth inhibition. […]
About 83,000 compounds went through this panel and 20% of them were active in at least one assay; those are over-represented in the sample as a whole.
Quantity: growth (%)

| Compound | Reported Value |
| --- | --- |
| O=C(Nc1ccc(Br)cc1)c1ccc(Cl)c(Cl)c1 | 73 |
| COC(=O)c1ccc2c(c1)nc(-c1ccc(Cl)cc1)n2-c1cc(C(C)(C)C)[nH]n1 | 58 |
| COc1ccc(C(=O)OC2C(OC3C(O)COC(O[C@H]4C[C@H]5[C@@H]6CC=C7C[C@@H](O)CC[C@]7(C)[C@H]6CC[C@]5(C)[C@H]4[C@H](C)C(=O)CCC(C)C)C3OC(=O)C(C)C)OCC(O)C2O)cc1 (stereo partly specified) | -49.6 |
| CCSCC1CC(O)(c2ccccc2)C(c2ccccc2)C(c2ccc(F)cc2)O1 (stereo unspecified) | -39.4 |
| O=C1OCC2=C1C(c1ccccc1)c1cc3c(cc1N2CCO)CCC3 (stereo unspecified) | 42.7 |
| O=C1CCCN1C1CCN2CCCc3cccc1c32 (stereo unspecified) | 115 |
| CC(=O)OC[C@H]1O[C@@H](n2c(=O)cc(N)[nH]c2=O)C(OC(C)=O)[C@@H]1OC(C)=O (stereo partly specified) | 110 |
| CS(=O)(=O)c1ccc(C(=O)N2N=C(c3ccccc3)CC2c2ccc3c(c2)OCO3)cc1 (stereo unspecified) | 106 |
| COc1ccc(Nc2nc(N)nc3c(=O)[nH]ccc23)cc1 | 124 |
| COc1ccc(CNc2c3ccccc3nc3ccccc23)cc1F | 46.7 |
| CSc1nc(N)c2[nH]c(-c3cc4ccccc4[nH]c3=O)nc2n1 | 116 |
| Cc1cc(C#Cc2ccc(C(C)(C)C)cc2)ccc1-n1c(/C=C/c2c(Cl)cccc2Cl)nc2ccccc2c1=O | 126 |
| COc1cc2ccc(C(C)=O)cc2cc1OC | 131 |
| CC(=O)N1N=C(C2C(=O)N(C)C(=O)N(C)C2=O)CC1c1ccccc1C(=O)O (stereo unspecified) | 112 |
| COc1ncnc2[nH]cc(CN3CCN(c4ccc(F)cc4)CC3)c12 | 114 |
| Clc1ccc(Cl)c(N=Cc2ccc3c(c2)OCO3)c1 | 116 |
| C=CCCCCOc1cccc(/C=C2\N=C3SCCCN3C2=O)c1 | 108 |
| CCNCCCn1c2c(c3ccc(Cl)cc3c1=O)C(=O)c1cc(OC)cnc1-2 | 70.5 |
| O=C(O/C(=C/c1ccccc1)C(F)(F)F)c1ccccc1 | 116 |
| CCOC(=O)CCN(CCC(=O)OCC)c1ccccc1 | 117 |
| NC(N)=NC1CCCCC1 | 109 |
